assay: endothelial E-selectin expression blockers – imaging, HUVEC, immunofluorescence, MLSMR starter and 10KST1 sets, primary screen (AID 487); conditions: HUVEC TNFalpha-induced E-selectin immunofluorescence imaging, at 2 µM; measured here: cell number, toxicity;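 also: 100% = median nuclei count of all wells on the same plate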
Parameter: nuclei count (%)
Respond with the bare value in %.

Field: example entries. Status: answers known.
N#Cc1c(N)oc(-c2cccs2)c1-c1cccs1: 120
COc1ccc(S(=O)(=O)N2CCN(S(=O)(=O)c3ccc4c(c3)OCCO4)CC2)cc1C: 85
O=C(CCCn1ncn2c(cc3occc32)c1=O)N1CCc2ccccc2C1: 101
CC1CN(c2c3c(nc4ncnn24)CCCC3)CC(C)O1 (stereo unspecified): 106
CC(=O)Nc1nc(-c2ccccc2)nc(C)c1C(C)=O: 87.6

Requested read-out: nuclei count. Entry: NS(=O)(=O)c1ccc(NC(=O)CSc2nnc(Cc3cccs3)n2-c2ccccc2)cc1
100

---

assay: inhibitors of TNFa-induced NFkB p65 translocation, primary screen, imaging, HUVEC, MLSMR starter and 10KST1 sets (AID 438); conditions: HUVEC TNFa-induced p65 nuclear translocation; measured here: nuclei count (cytotoxicity indicator), at 2.08 µM;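 also: compound added about 3h40 before a 20 min TNFalpha stimulation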
Parameter: cell count
A bare number is all that is needed in reply.

CCn1nnnc1SCC(=O)N1c2ccccc2CCc2ccccc21: 568
COc1ccc(Nc2nc(OC)nc(N3CCN(c4ccc(OC)cc4)CC3)n2)cc1: 646

So what does the record say about cell count for CCOC(=O)Cn1c(CN2CCOCC2)nc2c1c(=O)[nH]c(=O)n2C ?
507

---

assay: inhibitors of TNFa-induced NFkB p65 translocation, primary screen, imaging, HUVEC, MLSMR starter and 10KST1 sets (AID 438); details: HUVEC TNFa-induced p65 nuclear translocation; at 2 µM, stronger effect = higher value, 0% TNFa-plus-vehicle, 100% no-TNFa wells;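 also: compound added about 3h40 before a 20 min TNFalpha stimulation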;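 as to inhibition: signal is the nuclear over cytoplasmic p65 intensity ratio per well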
Parameter: inhibition (%)
Use % as the unit, but write only the number.

Example entries begin here.
COc1ccc(C(C)NC(=O)c2ccoc2C)cc1OC (configuration not stated): -8.9
O=C(Nc1ccc(N2CCOCC2)cc1)Nc1ccc2nc(-c3ccco3)c(-c3ccco3)nc2c1: -0.7

GET /values?readout=inhibition&item= COc1ccccc1NC(=O)NCc1ccc2c(c1)OCO2
-9.8

inhibition lookup needed for N#CC1=C(N)SC(N)=C(C#N)C1CCc1ccccc1 , thanks.
-3.2

What value of measured inhibition is listed for CC(C)(CO)NC(=O)CCCOc1ccc(Cl)cc1Cl ?
-4.9

// inhibition lookup, key: Nc1nc(CSCc2ccccc2)nc(N2CCOCC2)n1
0.8

# lookup: inhibition of O=C(NCc1ccccn1)Nc1ccc2c(c1)OCO2
-12.8

What value of inhibition has been recorded for this entry: CCN(CC)C(=O)CSc1nc2ccccc2c(=O)n1CCC(=O)NCc1ccc(F)cc1
-6.6

Which inhibition value is on record for CCOC(=O)c1sc(NC(=O)CSc2ncn(-c3ccccc3)n2)nc1C ?
-6.5

Value lookup for inhibition; key = COc1cccc(NC(=O)N(CCCN2CCOCC2)C(C)c2cc3cccc(OC)c3o2)c1 (configuration not stated)
5

---

Catalogue of nuclei count values
experiment: endothelial E-selectin expression blockers – imaging, HUVEC, immunofluorescence, MLSMR starter and 10KST1 sets, primary screen (AID 487); conditions: HUVEC TNFalpha-induced E-selectin immunofluorescence imaging, at 2 µM; measured here: cell number, toxicity;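 also: 100% = median nuclei count of all wells on the same plate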
Only the number, expressed in %, is required.

Guide cases for nuclei count, answers given:
CC(=O)C1=C(O)C(=O)N(Cc2cccnc2)C1c1ccccc1 (centres undefined): 115
CCn1c(=N)n(CC(=O)c2ccco2)c2ccccc21: 83.4

Reported nuclei count for Nc1nnc(-c2cn(-c3ccccc3)nc2-c2ccccc2)o1 : what is it?
113

Quick one: nuclei count of COC(=O)Nc1ccc(S(=O)(=O)N2CCCCCC2)cc1 ?
127

Which nuclei count is reported for this molecule? COc1ccc(C2CC(=O)c3c(C)nc(N4CCN(c5ccccc5)CC4)nc3C2)cc1 (centres undefined)
108

# input molecule: Cc1ccc(N2C(N)=NC(N)=NC23CCCC3)c(C)c1 ; wanted: its nuclei count
122

Bench note: what nuclei count did COc1ccccc1N1CCN(C(=O)c2cc(-c3ccc(Cl)c(Cl)c3)on2)CC1 show?
102

Which nuclei count is reported for this molecule? CCNS(=O)(=O)c1ccc(S(=O)(=O)N(Cc2ccccn2)C2CCCCC2)cc1
100

---

assay: inhibitors of TNFa-induced NFkB p65 translocation, primary screen, imaging, HUVEC, MLSMR starter and 10KST1 sets (AID 438); details: HUVEC TNFa-induced p65 nuclear translocation; measured here: nuclei count (cytotoxicity indicator), at 2.08 µM;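 also: compound added about 3h40 before a 20 min TNFalpha stimulation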
Parameter: cell count

Please review the entries below; each comes with its answer.
O=C1c2ccccc2C(=O)N1CCN1CCCCC1: 528
CN(C)Cc1cn(CCC(=O)O)c2ccccc12: 331
CCN1CCN(C(=O)c2cc3c(=O)n(C)c4ccccc4c3n2C)CC1: 601
O=C(CN1CCN(Cc2ccc3c(c2)OCO3)CC1)N1CCc2[nH]c3ccc(F)cc3c2C1: 687
CCOc1ccc2cc(C#N)c(SCC(=O)N3CCC(C)CC3)nc2c1: 447
CNC(=O)c1ccc2nc(NC(C)=O)sc2c1: 382
Cc1cc2c(c(=O)n1C)C(Cc1ccccc1)C(C#N)=C(N)O2 (stereo unspecified): 620
CC12C(=O)N(CCC(=O)O)C(=O)C1C1C=CC2C1 (stereo unspecified): 666

Name the reported cell count value associated with the molecule Cc1ccc2c(c1)CCCN2C(=O)C1CCCO1 (stereo unspecified)
354

I'd like to know its cell count. The molecule in question is O=C(NCc1ccco1)c1cccc(-c2nnc(-c3ccccc3)o2)c1
320

What cell count value was documented for this molecule, COc1ccc(N(CC(=O)N2CCCCC2)S(=O)(=O)c2ccccc2)c(OC)c1 ?
622

---

test: TLR3 IRF3 reporter activation blockers – cell-based, poly I:C stimulus, luciferase, 10K MLSCN set, primary screen (AID 602277); settings: HEK293-TLR3 RL24 IRF3 luciferase reporter, at 10 µM, stronger effect = higher value
Listed here: items and their measured inhibition.
Number only, in %; omit the unit.

Return reported inhibition; argument: Cc1ccc(OCC(O)Cn2c(NCCc3ccccc3)nc3c2c(=O)[nH]c(=O)n3C)cc1 (configuration not stated)
1.64

Please report the recorded inhibition for Clc1c(CSc2nc3ccccc3o2)nc2sccn12 .
-207

---

Here, each record is paired with measured nuclei count data.
experiment: reduction of polyQ htt aggregates in cells – imaging, exon1htt(103Q)mCFP cells, high-content imaging, primary screen (AID 483); conditions: exon1htt(103Q)mCFP cell line, aggregate imaging, at 2 µM; measured here: cell count, toxicity;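 also: compound exposure lasted 3 days before fixation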;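 as to nuclei count: percent of the per-plate median nuclei count of sample wells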
# do not omit the unit; it follows the number

Worked cases, answers included:
Cn1c2c(c(=O)n(C)c1=O)CN(CCCN1CCOCC1)CN2: 115%
O=C(CSc1nc2ccccc2nc1SCC(=O)N1CCOCC1)N1CCOCC1: 93.3%
Cc1cc(C)nc(N2CCC(C(=O)Nc3ccc4c(c3)CCC4)CC2)n1: 92%
CCOC(=O)CSc1nn(C)c(=S)s1: 108%
CCOC(=O)NC(=O)CSc1nnnn1-c1ccc(Cl)cc1: 83.5%

Any idea what its nuclei count is? The compound is Cc1ccc(NC(=O)COC(=O)c2ccn(C)n2)cc1
89.1%

I would be grateful if you could share the reported nuclei count for CCOC(=O)c1ccc(NS(=O)(=O)c2ccc(SC)cc2)cc1 .
89%

nuclei count for O=C1c2ccccc2C(=O)N1CCCn1nnc(-c2ccc(N3CCOCC3)cc2)n1 ?
111%

---

assay: reduction of polyQ htt aggregates in cells – imaging, exon1htt(103Q)mCFP cells, high-content imaging, primary screen (AID 483); details: exon1htt(103Q)mCFP cell line, aggregate imaging, at 2 µM; stronger effect = higher value;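 also: compound exposure lasted 3 days before fixation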
inhibition of aggregation listing for selected compounds.
Your answer should be a plain number; it is taken to be in %.

Solved cases (10 shown):
CCOC(=O)/C=C1\SCC(=O)N1Cc1nnc(-c2ccccc2Br)o1: -7.7
Cc1cc(C(=O)COc2cccc3cccnc23)c(C)n1C: -22.3
O=C(O)Cc1ccccc1C(=O)O: 0
COc1ccccc1NC(=O)NC(N)=O: -22.8
CS(=O)(=O)N(CC(=O)NC1CC1)c1cccc(F)c1: 0.3
Cc1sc2nc(SCC(=O)Nc3c(C)n(C)n(-c4ccccc4)c3=O)n(C)c(=O)c2c1C: 9
CC(CC(=O)NCc1ccccc1)C1CCCO1 (centres undefined): 20.9
Cc1cc(C)c2c(n1)nn1c(NCCCN3CCOCC3)cc(C)nc21: 11.5
CC(=O)N(CCc1ccccc1C)Cc1cc2cc3c(cc2[nH]c1=O)OCO3: 1.2
Cc1ccc(C)c(N2C(=O)CN=C2Nc2ccccc2Cl)c1: 0.8

Item Cc1cc(C(=O)CSc2nnc(-c3ccccc3)n2C)c(C)n1C has what recorded inhibition of aggregation?
3.6

// lookup inhibition of aggregation for COc1ccc(-c2noc(CSc3nc4ccccc4c(=O)n3-c3ccccc3)n2)cc1OC
12.7

Consider the compound shown here: NC(=O)C1CCN(C(=O)c2cc3n(n2)C(C(F)(F)F)CC(c2ccco2)N3)CC1 (centres undefined) What is its recorded inhibition of aggregation?
2.5

Would you mind telling me what inhibition of aggregation value was observed for CN(C)S(=O)(=O)Nc1ccccc1C(N)=O ?
-9.1

May I ask what inhibition of aggregation has been recorded for CC(=O)N1c2c(cc(Br)cc2S(=O)(=O)NCC2COc3ccccc3O2)CC1C (centres undefined) ?
19.1
